Test system: Escherichia coli
Assay: Antibacterial activity against Escherichia coli MC4100 assessed as reduction in bacterial growth by CLSI based broth microdilution method
Format: functional

| compound | modifier.sign | MIC, µg/mL |
| --- | --- | --- |
| C[C@H]1CC[C@]2(NC1)O[C@H]1C[C@H]3[C@@H]4CC[C@H]5CC(NC[C@@H](N)Cc6ccncc6)CC[C@]5(C)[C@H]4CC[C@]3(C)[C@H]1[C@@H]2C (mixture of isomers) | > | 128 |
| C[C@H]1CC[C@]2(NC1)O[C@H]1C[C@H]3[C@@H]4CC[C@H]5CC(NCCN6CCOCC6)CC[C@]5(C)[C@H]4CC[C@]3(C)[C@H]1[C@@H]2C (mixture of isomers) | > | 128 |
| C[C@H]1CC[C@]2(NC1)O[C@H]1C[C@H]3[C@@H]4CC[C@H]5CC(NC[C@@H](N)Cc6ccc(O)cc6)CC[C@]5(C)[C@H]4CC[C@]3(C)[C@H]1[C@@H]2C (mixture of isomers) | > | 128 |
| C[C@H]1CC[C@]2(NC1)O[C@H]1C[C@H]3[C@@H]4CC[C@H]5CC(NC[C@@H](N)Cc6ccc(-c7ccccc7)cc6)CC[C@]5(C)[C@H]4CC[C@]3(C)[C@H]1[C@@H]2C (mixture of isomers) | = | 8 |
| C[C@H]1CC[C@]2(NC1)O[C@H]1C[C@H]3[C@@H]4CC[C@H]5CC(NC[C@@H](N)Cc6ccc(I)cc6)CC[C@]5(C)[C@H]4CC[C@]3(C)[C@H]1[C@@H]2C (mixture of isomers) | = | 8 |
| C[C@H]1CC[C@]2(NC1)O[C@H]1C[C@H]3[C@@H]4CC[C@H]5CC(NC[C@@H](N)Cc6ccc(Cl)c(Cl)c6)CC[C@]5(C)[C@H]4CC[C@]3(C)[C@H]1[C@@H]2C (mixture of isomers) | = | 8 |
| C[C@H]1CC[C@]2(NC1)O[C@H]1C[C@H]3[C@@H]4CC[C@H]5CC(NCCN)CC[C@]5(C)[C@H]4CC[C@]3(C)[C@H]1[C@@H]2C (stereo partly drawn) | = | 16 |
| C[C@H]1CC[C@]2(NC1)O[C@H]1C[C@H]3[C@@H]4CC[C@H]5CC(N[C@@H]6CCNC6)CC[C@]5(C)[C@H]4CC[C@]3(C)[C@H]1[C@@H]2C (mixture of isomers) | = | 64 |
